Test system: HUVECs
assay-remarks: ALAMARBLUE proliferation assay in HUVECs
Format: cell-based, human
condition-context: Homo sapiens, HUVEC, 48 h, 50% growth inhibitory concentration, alamarBlue
property-measured: GI50

> print(dat)
                                   compound  measurement.target  experimental.value
1  COc1cccc(/C=C2\COc3cc(OC)c(OC)c(OC)c3C2=O)n1 [Compound 11f]              HUVECs               16 µM
2  COc1ccc(CC2COc3cc(O)c(OC)c(O)c3C2=O)cc1O (racemic)              HUVECs            0.377 µM
3  COc1ccc(/C=C2\COc3cc(OC)c(OC)c(OC)c3C2=O)cc1F [Compound 11s]              HUVECs              7.6 µM
4  COc1ccc(CC2COc3cc(OC)c(O)c(O)c3C2=O)cc1O (single isomer, unassigned)              HUVECs               18 µM
